# EXPERIMENTAL SYSTEM: HDAC3 (complex of full length human HDAC3 with human NCOR2 amino acids 395-489) (Homo sapiens, UniProt O15379)
# Construct: complex of full length human HDAC3 with a C-terminal His-tag; His-tag (C); host or cells: baculovirus expression system
# Sequence (O15379 whole entry, the tested form may be a part): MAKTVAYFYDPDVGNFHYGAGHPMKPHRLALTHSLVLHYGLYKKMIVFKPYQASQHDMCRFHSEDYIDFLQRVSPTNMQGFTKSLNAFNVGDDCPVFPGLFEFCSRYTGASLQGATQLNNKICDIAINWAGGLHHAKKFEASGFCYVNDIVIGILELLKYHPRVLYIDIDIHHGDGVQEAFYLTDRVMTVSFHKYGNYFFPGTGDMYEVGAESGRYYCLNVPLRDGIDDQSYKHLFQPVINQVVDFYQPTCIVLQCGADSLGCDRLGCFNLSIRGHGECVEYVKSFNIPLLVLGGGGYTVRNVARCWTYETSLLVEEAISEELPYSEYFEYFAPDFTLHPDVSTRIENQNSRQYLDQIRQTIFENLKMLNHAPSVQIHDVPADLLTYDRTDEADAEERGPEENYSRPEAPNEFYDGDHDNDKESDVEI
# Sequence (Q9Y618 395-489 partner limits assumed): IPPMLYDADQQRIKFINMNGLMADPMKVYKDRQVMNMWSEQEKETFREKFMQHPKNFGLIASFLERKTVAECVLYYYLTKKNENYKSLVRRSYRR
# EXPERIMENT NOTES: HDAC enzymatic assay, HDAC3
# Assay type: biochemical
# APPLIED CONDITIONS: fluorogenic tetrapeptide RHKKAc substrate 10 μM; read-out: HDAC isoforms IC50 (nM), 3
PARAMETER: IC50

1) O=C1NC[C@@H](c2ccccc2)[C@H]1C(=O)N[C@@H](CCCCCS)C(=O)Nc1ccccc1 ... 50 to 100 nM
2) Cc1ccc(NC(=O)[C@H](CCCCCS)NC(=O)[C@@H]2CCCC(=O)N2)cc1 ... < 50 nM
3) O=C1CCC[C@@H](C(=O)N[C@@H](CCCCCS)C(=O)NCc2ccc(C(F)(F)F)cc2)N1 ... 100 to 500 nM

q: So what does the record say about IC50 for `O=C1NCCC[C@@H]1C(=O)N[C@@H](CCCCCS)C(=O)Nc1ccccc1` ?
a: < 50 nM

q: Entry `O=C1NC[C@@H](c2ccccc2)[C@@H]1C(=O)N[C@@H](CCCCCS)C(=O)Nc1ccccc1` : reported IC50 = ?
a: < 50 nM

q: IC50 lookup needed for `O=C1CCC[C@@H](C(=O)N[C@@H](CCCCCS)C(=O)NC2CCCC2)N1` , thanks.
a: 50 to 100 nM

q: Look up IC50: `O=C1CCC[C@@H](C(=O)N[C@@H](CCCCCS)C(=O)NCc2cccc(OCc3ccccc3)c2)N1`
a: 100 to 500 nM

q: Which IC50 is listed for `O=C1CCC[C@@H](C(=O)N[C@@H](CCCCCS)C(=O)Nc2ccccc2)N1` ?
a: < 50 nM

q: Dear colleague, I am looking for the recorded IC50 of the following molecule: `Cc1cccc(NC(=O)[C@H](CCCCCS)NC(=O)[C@@H]2CCCC(=O)N2)c1`
a: < 50 nM

q: // returns reported IC50 for input `O=C1NC[C@H](c2ccccc2)[C@@H]1C(=O)N[C@@H](CCCCCS)C(=O)Nc1ccccc1`
a: < 50 nM

q: IC50 lookup needed for `Cc1cccc(CCNC(=O)[C@H](CCCCCS)NC(=O)[C@@H]2CCCC(=O)N2)c1` , thanks.
a: 100 to 500 nM

q: Recorded IC50 of `O=C1CCC[C@@H](C(=O)N[C@@H](CCCCCS)C(=O)N2CCc3ccccc3C2)N1` , please.
a: 100 to 500 nM

q: What does the record list as IC50 for `CN1C(=O)CCC[C@H]1C(=O)N[C@@H](CCCCCS)C(=O)Nc1ccccc1` ?
a: < 50 nM

Reference source: patent US8927533B2
